target: Monoacylglycerol lipase ABHD6 (Mus musculus) (UniProt Q8R2Y0); assay: competitive ABPP of Abhd10 versus anti-targets – biochemical, fluorescence, gel-based, mouse proteome, selectivity assay for PME-1 inhibitor project, late-stage follow-up (AID 588807); details: anti-target, at 10 µM, stronger effect = higher value
Sequence (Q8R2Y0 whole entry, looked up): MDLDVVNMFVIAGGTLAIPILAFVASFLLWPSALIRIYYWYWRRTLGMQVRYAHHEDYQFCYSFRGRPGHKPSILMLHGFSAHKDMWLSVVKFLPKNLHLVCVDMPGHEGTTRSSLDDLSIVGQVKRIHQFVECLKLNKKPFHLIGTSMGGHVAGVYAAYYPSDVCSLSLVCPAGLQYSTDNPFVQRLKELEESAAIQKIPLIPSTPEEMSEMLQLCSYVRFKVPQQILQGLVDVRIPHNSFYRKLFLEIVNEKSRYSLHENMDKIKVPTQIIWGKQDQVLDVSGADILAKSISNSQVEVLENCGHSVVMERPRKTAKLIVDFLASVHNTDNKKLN
quantity kind: inhibition (%)

INSERT INTO assay_data (molecule, readout_value) VALUES
  ('CC[C@@]1(c2cccc(C)c2)C(=O)N(C(=O)OC)N1C(=O)OC(C)C', 75);

a. CC[C@@]1(c2ccccc2)C(=O)N(C(=O)OC)N1C(=O)OC
b. C=CCOC(=O)N1C(=O)[C@@](CC)(c2ccccc2)N1C(=O)OCC=C
Request: Which item exceeds the other in inhibition, a or b ? Give the label under which the chosen entry appears.
Result: b
(b: 80%, a: 0%)

1. CC[C@]1(c2cccc(C)c2)C(=O)N(C(=O)OC(C)C)N1C(=O)OC(C)C
2. C=CCOC(=O)N1C(=O)[C@@](CC)(c2cccc(C)c2)N1C(=O)OCC=C
Request: Which gives the smaller inhibition number: 1 or 2 ? Give the label under which the chosen entry appears.
Result: 1

I. CC[C@@]1(c2cccc(Cl)c2)C(=O)N(C(=O)OC)N1C(=O)OC
II. C=CCOC(=O)N1C(=O)[C@@](CC)(c2cccc(C)c2)N1C(=O)OC
III. CCOC(=O)N1C(=O)[C@@](C)(c2cccc(C)c2)N1C(=O)OCC
Request: Rank by inhibition (largest to smallest). # output: labels, in the requested order
Result: I, II, III
(I: 65%, II: 45%, III: 0%)
